# test-target: T1, human Nectin-4 extracellular antigen hNectin-4-His (human, UniProt Q96NY8 32-349)
# T1 construct: C-terminal 8xHis tag included
# T1 sequence: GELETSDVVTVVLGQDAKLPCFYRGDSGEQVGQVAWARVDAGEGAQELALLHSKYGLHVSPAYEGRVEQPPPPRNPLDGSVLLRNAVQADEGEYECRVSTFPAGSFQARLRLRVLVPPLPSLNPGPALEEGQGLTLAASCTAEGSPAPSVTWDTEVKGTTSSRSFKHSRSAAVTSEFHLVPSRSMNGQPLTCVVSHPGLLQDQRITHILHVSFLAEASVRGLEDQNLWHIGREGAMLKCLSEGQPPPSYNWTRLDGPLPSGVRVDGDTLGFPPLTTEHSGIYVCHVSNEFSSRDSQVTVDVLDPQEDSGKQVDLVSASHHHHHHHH
# protocol-text: ELISA, phage scFv supernatant 1:50
recorded-metric: OD value

Example binders with recorded OD value:
10F4-2E8 scFv (scFv, V domains shown, phage clone supernatant) VH: EVQLVESGGGLVQPGGSLRLSCAASGFNFGNYDMSWVRQAPGKGLEWVSSIIPHGDYSFYADSVKGRFTISRDNSKNTLYLQMNSLRAEDTAVYYCAREYSDVVDYVSVRTPLDYWGQGTLVTVSS VL: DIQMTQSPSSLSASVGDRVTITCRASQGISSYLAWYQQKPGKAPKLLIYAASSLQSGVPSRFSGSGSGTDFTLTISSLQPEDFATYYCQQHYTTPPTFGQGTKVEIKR ... 1.38 OD
1F3-2D2 scFv (scFv, V domains shown, phage clone supernatant) VH: EVQLVESGGGLVQPGGSLRLSCAASGFNFSSYGMSWVRQAPGKGLEWVSRISPYTGTTHYADSVKGRFTISRDNSKNTLYLQMNSLRAEDTAVYYCARAELLAFDVYTASDYWGQGTLVTVSS VL: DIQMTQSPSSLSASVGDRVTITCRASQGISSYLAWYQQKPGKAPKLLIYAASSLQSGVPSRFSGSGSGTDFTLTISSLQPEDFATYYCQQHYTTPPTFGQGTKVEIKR ... 1.59 OD
1F3-2E8 scFv (scFv, V domains shown, phage clone supernatant) VH: EVQLVESGGGLVQPGGSLRLSCAASGYSFSDYGMSWVRQAPGKGLEWVSWISPSKGSASYADSVKGRFTISRDNSKNTLYLQMNSLRAEDTAVYYCARAELLAFDVYTASDYWGQGTLVTVSS VL: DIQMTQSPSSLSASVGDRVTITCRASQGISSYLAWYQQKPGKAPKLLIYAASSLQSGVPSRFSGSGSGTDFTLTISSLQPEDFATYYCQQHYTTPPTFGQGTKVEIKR ... 1.56 OD
1G8-1A3 scFv (scFv, V domains shown, phage clone supernatant) VH: EVQLVESGGGLVQPGGSLRLSCAASGYNFGSYAMSWVRQAPGKGLEWVSRIYPGSWSPDYADSVKGRFTISRDNSKNTLYLQMNSLRAEDTAVYYCARQTEDRSYGYDLDYWGQGTLVTVSS VL: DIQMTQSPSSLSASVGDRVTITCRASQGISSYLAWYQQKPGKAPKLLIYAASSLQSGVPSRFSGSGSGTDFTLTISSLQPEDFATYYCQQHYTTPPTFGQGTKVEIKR ... 1.62 OD

For the next question, use this binder.
Fill in the blank: the reported OD value of 1G8-1D7 scFv (scFv, V domains shown, phage clone supernatant) VH: EVQLVESGGGLVQPGGSLRLSCAASGGSFSNYAMSWVRQAPGKGLEWVSWIDTTSAYASYADSVKGRFTISRDNSKNTLYLQMNSLRAEDTAVYYCARQTEDRSYGYDLDYWGQGTLVTVSS VL: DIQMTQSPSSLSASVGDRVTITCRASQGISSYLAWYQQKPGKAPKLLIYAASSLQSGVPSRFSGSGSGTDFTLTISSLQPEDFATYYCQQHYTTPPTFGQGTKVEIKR is ____. 1.49 OD
